Listed here are compounds together with their documented growth inhibition (GI).
Test system: MCF7
protocol-summary: Growth inhibition of human MCF7 cells by MTT assay; also: test concentration or dose not given here
Format: functional, cell-based
Please respond with the number in % and leave the unit unwritten.

# compound, reading-unit, growth inhibition (GI)
data = [
    ("O=C1CCCN1C(c1ccc(Cl)cc1)c1c(O)ccc2ccccc12 (stereo not given)", "%", 23.14),
    ("O=C1CCCN1C(c1cccc2ccccc12)c1c(O)ccc2ccccc12 (stereo not given)", "%", 60.46),
    ("O=C1CCCN1C(c1ccc(Br)cc1)c1c(O)ccc2ccccc12 (stereo not given)", "%", 41.22),
    ("COc1cccc2c1C(=O)c1c(O)c3c(c(O)c1C2=O)C[C@@](O)(C(=O)CO)C[C@@H]3O[C@H]1C[C@H](N)[C@H](O)[C@H](C)O1", "%", 77.98),
    ("O=C1CCCN1C(c1ccccc1Cl)c1c(O)ccc2ccccc12 (stereo not given)", "%", 55.01),
    ("COc1cccc(C(c2c(O)ccc3ccccc23)N2CCCC2=O)c1 (stereo not given)", "%", 39.71),
]

Give the reported growth inhibition (GI) for this compound. N#Cc1ccc(C(c2c(O)ccc3ccccc23)N2CCCC2=O)cc1 (stereo not given)
33.41

Return value of growth inhibition (GI) for input Cc1ccc(C(c2c(O)ccc3ccccc23)N2CCCC2=O)cc1 (stereo not given) , no commentary.
56.46

In one line, give reported growth inhibition (GI) of the entry O=C1CCCN1C(c1ccc(Cl)cc1Cl)c1c(O)ccc2ccccc12 (stereo not given) .
61.71

Supply recorded growth inhibition (GI) for COc1ccc(C(c2c(O)ccc3ccccc23)N2CCCC2=O)cc1 (stereo not given) here.
38.98
